These entries and their values trace back to paper PMC5540273.

Test system: ACVR2A
Conditions: concentration: 1 μM,replicates: in singlicate; n = 1
Criterion: %Inh meeting or surpassing 20%. Met: YES. Not met: NO.

>  <Molecule>
Cc1ccc(C(=O)Nc2ccc(Oc3ccc4nc(NC(=O)C5CC5)cn4c3)c(F)c2)c(=O)n1-c1ccccc1

>  <Measurement target>
ACVR2A

>  <Qualitative label>
NO

$$$$
>  <Molecule>
COc1cccc(C2=C(Nc3cccc(Cl)c3)C(=O)NC2=O)c1 [SB-341556]

>  <Measurement target>
ACVR2A

>  <Qualitative label>
NO

$$$$
>  <Molecule>
Cc1cccc(-c2nc(Nc3ccncc3)c3sccc3n2)n1 [GW869641]

>  <Measurement target>
ACVR2A

>  <Qualitative label>
YES

$$$$
>  <Molecule>
COc1cc2c(Nc3ccc(NC(=O)c4ccccc4)cc3)ncnc2cc1OCCCN1CCOCC1 [GSK301329]

>  <Measurement target>
ACVR2A

>  <Qualitative label>
NO

$$$$
>  <Molecule>
NC(=O)Nc1sc(-c2ccc(F)cc2)cc1C(N)=O [GW789449]

>  <Measurement target>
ACVR2A;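 also: KINOMEscan kinase panel screen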

>  <Qualitative label>
YES

$$$$

# check: %Inh of C[C@@H](Oc1cc(-n2cnc3cc(-c4ccncc4)ccc32)sc1C(N)=O)c1ccccc1Cl [GSK479719] is greater than or equal to 20%
NO

# check: %Inh of COC(=O)c1cccc(NC(=O)NC2CCN(c3ccnc(Nc4cc(OC)c(OC)c(OC)c4)n3)C2)c1 (centres unmarked) [GSK1379767] is greater than or equal to 20%
YES

# check: %Inh of CC(C)c1nc(-c2cccc(NS(=O)(=O)c3ccccc3)c2)c(-c2ccnc(Nc3ccc4c(c3)CN(C)CC4)n2)s1 [GSK1649598] is greater than or equal to 20%
YES
